Entry source: patent US20190218553

For each entry below, report its pKd value.
# experimental_system: von Willebrand factor (VWF) (Homo sapiens, UniProt P04275 P04275:764-2813)
# protocol_text: filter; Bmax 88%; 2 mM CaCl2, 37 C
# condition_description: tags: factor VIII free, Haematologic Technologies Inc; label: 5'-32P
Quick note: pKd means taking -log10 of the concentration in moles per liter.

Exercise: Endpoint output: pKd of ACGAACUGCCCUCGAUCGACGCACAGACGU (ssRNA, rAfCrGmAmAmCfUmGfCfCfCfUmCmGmAmUmCmGrAfCrGfCrAmCmAmGmAfCrGfU-idT) [T59 vrt11] . Value?
Solution: 8.89

Exercise: Endpoint output: pKd of ACGAACUGCCCUCGUUUCAUCGACGCACAGACGU (ssRNA, 2'-F C and U; 2'-OH A and G; 3' idT) [T86] . Value?
Solution: 7.80
